Reference source for all entries: the supplement of paper PMC11127212

# TEST DESCRIPTION: collision cross section (TWIMS, N2) of ion [M+H-H2O]+; higher = larger gas-phase ion cross section
# REPORTED CONDITIONS: ionization: ESI positive; LC: HILIC, pH 3.0 ammonium formate
Here the recorded collision cross section is given for each entry.
Give just the numeric value; Å² need not be written.

Solved entries (count: 5):
molecule="CN(CC(=O)O)C(=N)N [Creatine]" observable="collision cross section" units_label=Å² result_value=122.05
molecule="Cc1cccc(O)c1 [m-cresol]" observable="collision cross section" units_label=Å² result_value=123.87
molecule="COc1cc([C@H](O)C(=O)O)ccc1O [Vanillylmandelic acid]" observable="collision cross section" units_label=Å² result_value=135.63
molecule="O=C(O)c1ccc(O)cc1 [4-hydroxybenzoic acid]" observable="collision cross section" units_label=Å² result_value=124.91
molecule="O=C(O)c1cc(O)ccc1O [Gentisic acid]" observable="collision cross section" units_label=Å² result_value=126.57

Qu. Returns the measured collision cross section for the input molecule. Input: Cc1c[nH]c(=O)[nH]c1=O [Thymine]
Ans. 122.06

Qu. C/C(=C/C(=O)O)C(=O)O [Citraconic acid] , same question.
Ans. 124.18

Qu. How about CCCCCC/C=C\CCCCCCCC(=O)O [Palmitoleic acid] ?
Ans. 161.08

Qu. Further, for O=C(O)/C=C\C(=O)O [Maleic acid] ?
Ans. 114.1

Qu. Then O=C(O)[C@@H]1C[C@@H](O)CN1 [Hydroxyproline] ?
Ans. 123.91

Qu. How about Nc1ccccc1C(=O)C[C@H](N)C(=O)O [L-kynurenine] ?
Ans. 140.8

----------
# TEST DESCRIPTION: retention time on BEH HILIC column (20 min gradient, 0.4 mL/min); higher = later elution
# REPORTED CONDITIONS: ionization: ESI negative; LC: HILIC, pH 9.0 ammonium acetate
retention time on BEH HILIC column of 2 min or higher: Y. Under 2 min: N.

molecule="O=C(O)/C=C(\\CC(=O)O)C(=O)O [trans-aconitic acid]" classification=Y

Qu. Is it the case that Nc1c(C(=O)O)c2nc3c(C(=O)O)cccc3oc-2cc1=O [Cinnavalininate] has retention time on BEH HILIC column reaching or exceeding 2 min?
Ans. Y

Qu. Also "CC(=O)N[C@H]1[C@@H](OP(=O)(O)OP(=O)(O)OC[C@H]2O[C@@H](n3ccc(=O)[nH]c3=O)[C@H](O)[C@@H]2O)O[C@H](CO)[C@@H](O)[C@@H]1O" ?
Ans. Y

Qu. Query O=C(O)Cc1cccc(O)c1 [3-hydroxyphenylacetic acid] next
Ans. N

----------
# TEST DESCRIPTION: collision cross section (TWIMS, N2) of ion [M+Na]+; higher = larger gas-phase ion cross section
# REPORTED CONDITIONS: ionization: ESI positive; LC: HILIC, pH 3.0 ammonium formate
OBSERVABLE: collision cross section (Å²)
Kindly answer with a numeric value in Å², unit omitted.

# count of solved cases: 5
molecule=O=C(O)CCCCCCCC(=O)O result_value=145.99
molecule=OC[C@@H](O)[C@H](O)[C@@H](O)CO result_value=133.34
molecule=O=C(O)c1cccnc1 result_value=128.31
molecule=O=C[C@H](O)[C@H](O)[C@H](O)[C@@H](O)CO result_value=135.32
molecule="CCOC(=O)CC(C)C(=O)OCC (stereo unspecified) [Diethyl methylsuccinate]" result_value=151.23

Qu. Bench note: what collision cross section did O=C(O)/C=C(\CC(=O)O)C(=O)O [trans-aconitic acid] show?
Ans. 138.79

Qu. Ok, now "OC[C@@H](O)[C@H](O)[C@H](O)[C@@H](O)CO"
Ans. 140.03

Qu. How about this molecule: "CCCCCCCCCCCCCCCCCCC(=O)O"
Ans. 190.13

Qu. What do we get for O=C[C@H](O)COP(=O)(O)O [D-glyceraldehyde 3-phosphate] ?
Ans. 137.94

Qu. What do you get for O=C(O)C(CO)c1ccccc1 (stereo unspecified) [Tropate] ?
Ans. 140.74

Qu. // same read-out, input: "OC[C@@]1(O)OC[C@@H](O)[C@H](O)[C@@H]1O"
Ans. 136.93
